Data origin, for the record: ChEMBL document CHEMBL4622886

- Tested on: BT-549
- TEST NAME: Antiproliferative activity against human BT549 cells up to 100 nM incubated for 48 hrs by sulforhodamine B assay
- Assay type: functional, cell-based
Activity calls are given as the source filed them. The rule behind the calls is not given here. Numbered stars: 1 amine (or outer) side, 2 acyl side, 3 side chain; on linkers, the order of the positions; unused ones are H or OH. Square brackets hold non-standard residues; d marks the D form. Peptide text beside a SMILES is read from it. * marks the point of attachment. X1 = CCC(=O)C[C@@H](O)C[C@@H](C)C[C@H](N[*:1])C(=O)[*:2]; X4 = CCCC[C@@H](O)C[C@@H](C)C[C@H](N[*:1])C(=O)[*:2]; X2 = CCC(=O)/C=C/C[C@@H](C)C[C@H](N[*:1])C(=O)[*:2]; Hexenoyl(2E,4S-Me) = CC[C@H](C)/C=C/C(=O)*; Leu(3R-OH) = CC(C)[C@@H](O)[C@H](N)C(=O)O; NH((S)CH(Me)CH2NMe2) = C[C@@H](CN(C)C)N*; Pro(4S-Me) = C[C@@H]1CN[C@H](C(=O)O)C1; NH((S)CH(CH3)CH2NHMe) = CNC[C@H](C)N*; Aib = CC(C)(N)C(=O)O; βAla = NCCC(=O)O
EXPERIMENTAL ENDPOINT: Activity

Entry CCC(=O)C[C@@H](O)C[C@@H](C)C[C@H](NC(=O)[C@@H]1C[C@H](C)CN1C(=O)/C=C/[C@@H](C)CC)C(=O)N[C@H](C(=O)NC(C)(C)C(=O)N[C@@H](CC(C)C)C(=O)N[C@@H](CC(C)C)C(=O)NC(C)(C)C(=O)NC(C)(C)C(=O)NCCC(=O)N[C@@H](C)CN(C)C)[C@H](O)C(C)C ({Hexenoyl(2E,4S-Me)}-[Pro(4S-Me)][X1][Leu(3R-OH)][Aib]LL[Aib][Aib][βAla]-{NH((S)CH(Me)CH2NMe2)}) : reported Activity = ?
inactive

Look up Activity: CCC(=O)/C=C/C[C@@H](C)C[C@H](NC(=O)[C@@H]1C[C@H](C)CN1C(=O)/C=C/[C@@H](C)CC)C(=O)N[C@H](C(=O)NC(C)(C)C(=O)N[C@@H](CC(C)C)C(=O)N[C@@H](CC(C)C)C(=O)NC(C)(C)C(=O)NC(C)(C)C(=O)NCCC(=O)N[C@@H](C)CNC)[C@H](O)C(C)C ({Hexenoyl(2E,4S-Me)}-[Pro(4S-Me)][X2][Leu(3R-OH)][Aib]LL[Aib][Aib][βAla]-{NH((S)CH(CH3)CH2NHMe)})
inactive

Which Activity reading was recorded for the molecule CCCC[C@@H](O)C[C@@H](C)C[C@H](NC(=O)[C@@H]1C[C@H](C)CN1C(=O)/C=C/[C@@H](C)CC)C(=O)N[C@H](C(=O)NC(C)(C)C(=O)N[C@@H](CC(C)C)C(=O)N[C@@H](CC(C)C)C(=O)NC(C)(C)C(=O)NC(C)(C)C(=O)NCCC(=O)N[C@@H](C)CN(C)C)[C@H](O)C(C)C ({Hexenoyl(2E,4S-Me)}-[Pro(4S-Me)][X4][Leu(3R-OH)][Aib]LL[Aib][Aib][βAla]-{NH((S)CH(Me)CH2NMe2)}) ?
inactive

----------
- System: HCC1937
- TEST NAME: Antiproliferative activity against human HCC1937 cells at >1 uM incubated for 48 hrs by sulforhodamine B assay
- Format: functional, cell-based
Calls of active or inactive are those of the source. The rule behind the calls is not given here. Numbered stars: 1 amine (or outer) side, 2 acyl side, 3 side chain; on linkers, the order of the positions; unused ones are H or OH. Square brackets hold non-standard residues; d marks the D form. Peptide text beside a SMILES is read from it. * marks the point of attachment. X1 = CCC(=O)C[C@@H](O)C[C@@H](C)C[C@H](N[*:1])C(=O)[*:2]; Hexenoyl(2E,4S-Me) = CC[C@H](C)/C=C/C(=O)*; Leu(3R-OH) = CC(C)[C@@H](O)[C@H](N)C(=O)O; NH((S)CH(Me)CH2NMe2) = C[C@@H](CN(C)C)N*; Pro(4S-Me) = C[C@@H]1CN[C@H](C(=O)O)C1; NH((S)CH(CH3)CH2NHMe) = CNC[C@H](C)N*; Aib = CC(C)(N)C(=O)O; βAla = NCCC(=O)O
EXPERIMENTAL ENDPOINT: Activity

Using the record for CCC(=O)C[C@@H](O)C[C@@H](C)C[C@H](NC(=O)[C@@H]1C[C@H](C)CN1C(=O)/C=C/[C@@H](C)CC)C(=O)N[C@H](C(=O)NC(C)(C)C(=O)N[C@@H](CC(C)C)C(=O)N[C@@H](CC(C)C)C(=O)NC(C)(C)C(=O)NC(C)(C)C(=O)NCCC(=O)N[C@@H](C)CN(C)C)[C@H](O)C(C)C ({Hexenoyl(2E,4S-Me)}-[Pro(4S-Me)][X1][Leu(3R-OH)][Aib]LL[Aib][Aib][βAla]-{NH((S)CH(Me)CH2NMe2)}) , report its Activity.
Active

Given the entry CCC(=O)C[C@@H](O)C[C@@H](C)C[C@H](NC(=O)[C@@H]1C[C@H](C)CN1C(=O)/C=C/[C@@H](C)CC)C(=O)N[C@H](C(=O)NC(C)(C)C(=O)N[C@@H](CC(C)C)C(=O)N[C@@H](CC(C)C)C(=O)NC(C)(C)C(=O)NC(C)(C)C(=O)NCCC(=O)N[C@@H](C)CNC)[C@H](O)C(C)C ({Hexenoyl(2E,4S-Me)}-[Pro(4S-Me)][X1][Leu(3R-OH)][Aib]LL[Aib][Aib][βAla]-{NH((S)CH(CH3)CH2NHMe)}) , report its measured Activity.
Active

----------
- System: BT-549
- TEST NAME: Antiproliferative activity against human BT549 cells up to 100 nM incubated for 48 hrs by sulforhodamine B assay
- Format: functional, cell-based
Calls of active or inactive are those of the source. The calls are words filed in the database; no cut-off is given here. Numbered stars: 1 amine (or outer) side, 2 acyl side, 3 side chain; on linkers, the order of the positions; unused ones are H or OH. Square brackets hold non-standard residues; d marks the D form. Peptide text beside a SMILES is read from it. * marks the point of attachment. X4 = CCCC[C@@H](O)C[C@@H](C)C[C@H](N[*:1])C(=O)[*:2]; X2 = CCC(=O)/C=C/C[C@@H](C)C[C@H](N[*:1])C(=O)[*:2]; Hexenoyl(2E,4S-Me) = CC[C@H](C)/C=C/C(=O)*; Leu(3R-OH) = CC(C)[C@@H](O)[C@H](N)C(=O)O; NH((S)CH(Me)CH2NMe2) = C[C@@H](CN(C)C)N*; Pro(4S-Me) = C[C@@H]1CN[C@H](C(=O)O)C1; NH((S)CH(CH3)CH2NHMe) = CNC[C@H](C)N*; Aib = CC(C)(N)C(=O)O; βAla = NCCC(=O)O
EXPERIMENTAL ENDPOINT: Activity

Activity lookup needed for CCC(=O)/C=C/C[C@@H](C)C[C@H](NC(=O)[C@@H]1C[C@H](C)CN1C(=O)/C=C/[C@@H](C)CC)C(=O)N[C@H](C(=O)NC(C)(C)C(=O)N[C@@H](CC(C)C)C(=O)N[C@@H](CC(C)C)C(=O)NC(C)(C)C(=O)NC(C)(C)C(=O)NCCC(=O)N[C@@H](C)CN(C)C)[C@H](O)C(C)C ({Hexenoyl(2E,4S-Me)}-[Pro(4S-Me)][X2][Leu(3R-OH)][Aib]LL[Aib][Aib][βAla]-{NH((S)CH(Me)CH2NMe2)}) , thanks.
inactive

Please look up its Activity: CCCC[C@@H](O)C[C@@H](C)C[C@H](NC(=O)[C@@H]1C[C@H](C)CN1C(=O)/C=C/[C@@H](C)CC)C(=O)N[C@H](C(=O)NC(C)(C)C(=O)N[C@@H](CC(C)C)C(=O)N[C@@H](CC(C)C)C(=O)NC(C)(C)C(=O)NC(C)(C)C(=O)NCCC(=O)N[C@@H](C)CNC)[C@H](O)C(C)C ({Hexenoyl(2E,4S-Me)}-[Pro(4S-Me)][X4][Leu(3R-OH)][Aib]LL[Aib][Aib][βAla]-{NH((S)CH(CH3)CH2NHMe)})
inactive
